Target: UniProt P30560
Sequence (P30560 whole entry): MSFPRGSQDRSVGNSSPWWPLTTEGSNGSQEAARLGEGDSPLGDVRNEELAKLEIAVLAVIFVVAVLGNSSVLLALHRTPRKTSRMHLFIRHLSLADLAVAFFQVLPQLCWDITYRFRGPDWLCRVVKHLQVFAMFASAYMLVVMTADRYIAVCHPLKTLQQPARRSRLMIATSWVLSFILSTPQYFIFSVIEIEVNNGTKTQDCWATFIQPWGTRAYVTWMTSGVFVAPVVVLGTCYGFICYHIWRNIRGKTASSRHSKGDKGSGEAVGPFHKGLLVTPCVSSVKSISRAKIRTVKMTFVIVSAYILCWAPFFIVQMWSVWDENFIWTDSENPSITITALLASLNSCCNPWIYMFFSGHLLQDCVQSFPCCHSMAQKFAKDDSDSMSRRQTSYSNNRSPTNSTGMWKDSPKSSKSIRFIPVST
Test: V1 Receptor Binding Assay ([3H]-Arg-vasopressin, rat liver plasma membrane)
Settings: 37° C., 10 minutes, pH 8.0
pIC50: −log10 of the molar value. Where a name gives a salt, the structure may show the parent alone.
reported property: pIC50

Recorded pIC50, per entry:
compound	numeric result
Cc1ccccc1C(=O)Nc1ccc(C(=O)N2CCCC(CC(=O)N3CCCC3)c3cc(F)ccc32)cc1 (stereo not drawn) [Test Compound 50]	6.96
CN(C)C1CCCN(C(=O)c2ccc(NC(=O)Cc3c(Cl)cccc3Cl)cc2)c2ccccc21 (stereo not drawn) [Test Compound 6]	6.92
COc1cc(NC(=O)c2ccccc2C)ccc1C(=O)N1CCCC(CCN2CCN(C)CC2)c2cc(Cl)ccc21 (stereo not drawn) [Test Compound 55, dihydrochloride]	7.21

1 = Cc1ccccc1C(=O)Nc1ccc(C(=O)N2CCCC(=CCCN(C)C)c3cc(F)ccc32)c(Cl)c1 [Test Compound 33, hydrochloride]
2 = Cc1ccccc1C(=O)Nc1ccc(C(=O)N2CCCC(COC(=O)CN(C)C)c3cc(Cl)ccc32)cc1 (stereo not drawn) [Test Compound 25, hydrochloride]
3 = COc1cc(NC(=O)c2ccccc2Br)ccc1C(=O)N1CCCC(CC(=O)N2CCC(NC(C)=O)CC2)c2cc(F)ccc21 (stereo not drawn) [Test Compound 60]
Input: Rank by pIC50 (largest to smallest). Returns: the labels arranged in the requested order.
Output: 2, 3, 1

A = CCOc1cc(NC(=O)c2ccccc2Cl)ccc1C(=O)N1CCCC(CC(N)=O)c2cc(Cl)ccc21 (stereo not drawn) [Test Compound 28]
B = CNC(=O)CC1CCCN(C(=O)c2ccc(NC(=O)c3ccccc3C)cc2OC)c2ccc(F)cc21 (stereo not drawn) [Test Compound 42]
Input: In terms of reported pIC50, does A or B have the smaller number? Your answer should be the label of the entry you select.
Output: B
